Consider the following compounds; for each one, report its half-life.
- EXPERIMENT: Half life in human hepatocytes
- Type: ADME, cell-based, Hepatocyte

Request: Given CCCOc1nc(OCC(C)(C)O)c(-c2ccc(S(C)(=O)=O)cc2)cc1CO , state its recorded half-life.
Response: 0.0517 h

Request: Given Cc1ccc(-c2ncc(Cl)cc2-c2ccc(S(C)(=O)=O)cc2)cn1 , state its recorded half-life.
Response: > 6.18 h

Request: Given CC(C)(O)COc1ncc(C(F)(F)F)cc1-c1ccc(S(C)(=O)=O)cc1 , state its recorded half-life.
Response: > 6.18 h

---

Consider the following compounds; for each one, report its concentration at 4 h.
- EXPERIMENT: Drug concentration in C57BL/6J mouse portal vein plasma at 10 mg/kg, po administered as cassette dose measured at 4 hrs by LC/MS/MS analysis
- Assay type: ADME, organism-based
Value expressed in ng/mL; do not type the unit.

Request: Given CCCOc1nc(OCC(C)(C)O)c(-c2ccc(S(C)(=O)=O)cc2)cc1CO , state its recorded concentration at 4 h.
Response: 98.6

Request: Given CC(C)(O)COc1nc(OCCCC(F)(F)F)c(CO)cc1-c1ccc(S(C)(=O)=O)cc1 , state its recorded concentration at 4 h.
Response: 230

Request: Given CC(C)(O)COc1nc(OCCC(F)(F)F)c(CO)cc1-c1ccc(S(C)(=O)=O)cc1 , state its recorded concentration at 4 h.
Response: 179

---

- EXPERIMENT: Half life in human liver microsomes
- Format: ADME, Microsome
QUANTITY_KIND: half-life

Request: Given CC(C)(O)COc1ncc(C(F)(F)F)cc1-c1ccc(S(C)(=O)=O)cc1 , state its recorded half-life.
Response: > 3.07 h

Request: Given CCCOc1nc(OCC(C)(C)O)c(-c2ccc(S(C)(=O)=O)cc2)cc1CO , state its recorded half-life.
Response: > 3.07 h

Request: Given Cc1ccc(-c2ncc(Cl)cc2-c2ccc(S(C)(=O)=O)cc2)cn1 , state its recorded half-life.
Response: > 3.07 h

---

- EXPERIMENT: Ratio of drug concentration in C57BL/6J mouse colon to plasma at 10 mg/kg, po measured after 4 hr by liquid chromatographic triple-quadrupole mass spectrometric method
- Format: ADME, organism-based
- ASSAY_CONDITIONS: other tissue, 10 mg/kg, 4 h
Consider the following compounds; for each one, report its Ratio.

Request: Given CCCCOc1nc(OCC(C)(C)O)c(-c2ccc(S(N)(=O)=O)cn2)cc1CO , state its recorded Ratio.
Response: 2179

Request: Given CCCCOc1nc(OCC2(O)COC2)c(-c2ccc(S(C)(=O)=O)cc2)cc1CO , state its recorded Ratio.
Response: 1596

Request: Given CCCCOc1nc(OCC2(C)COC2)c(-c2ccc(S(C)(=O)=O)cc2)cc1CO , state its recorded Ratio.
Response: 1040

---

- TARGET_SYSTEM: Prostaglandin G/H synthase 2 (Homo sapiens)
Rule: measured T1/2 below 20 h gets Yes; anything equal to or greater than 20 h gets No.

Request: Here's an entry: CC(C)(O)COc1nc(OCCC(F)(F)F)c(CO)cc1-c1ccc(S(C)(=O)=O)cc1 . Is its T1/2 below 20 h?
Response: No

Request: Here's an entry: CCCOc1nc(OCC(C)(C)O)c(-c2ccc(S(C)(=O)=O)cc2)cc1CO . Is its T1/2 below 20 h?
Response: Yes

Request: Here's an entry: Cc1ccc(-c2ncc(Cl)cc2-c2ccc(S(C)(=O)=O)cc2)cn1 . Is its T1/2 below 20 h?
Response: Yes

Request: Here's an entry: CC(C)(O)COc1nc(OCCCC(F)(F)F)c(CO)cc1-c1ccc(S(C)(=O)=O)cc1 . Is its T1/2 below 20 h?
Response: No

Request: Here's an entry: CCCCOc1nc(OCC(C)(C)O)c(-c2ccc(S(C)(=O)=O)cc2)cc1CO . Is its T1/2 below 20 h?
Response: Yes

---

- TARGET_SYSTEM: Prostaglandin G/H synthase 2 (Homo sapiens)
- Sequence (P35354 whole entry): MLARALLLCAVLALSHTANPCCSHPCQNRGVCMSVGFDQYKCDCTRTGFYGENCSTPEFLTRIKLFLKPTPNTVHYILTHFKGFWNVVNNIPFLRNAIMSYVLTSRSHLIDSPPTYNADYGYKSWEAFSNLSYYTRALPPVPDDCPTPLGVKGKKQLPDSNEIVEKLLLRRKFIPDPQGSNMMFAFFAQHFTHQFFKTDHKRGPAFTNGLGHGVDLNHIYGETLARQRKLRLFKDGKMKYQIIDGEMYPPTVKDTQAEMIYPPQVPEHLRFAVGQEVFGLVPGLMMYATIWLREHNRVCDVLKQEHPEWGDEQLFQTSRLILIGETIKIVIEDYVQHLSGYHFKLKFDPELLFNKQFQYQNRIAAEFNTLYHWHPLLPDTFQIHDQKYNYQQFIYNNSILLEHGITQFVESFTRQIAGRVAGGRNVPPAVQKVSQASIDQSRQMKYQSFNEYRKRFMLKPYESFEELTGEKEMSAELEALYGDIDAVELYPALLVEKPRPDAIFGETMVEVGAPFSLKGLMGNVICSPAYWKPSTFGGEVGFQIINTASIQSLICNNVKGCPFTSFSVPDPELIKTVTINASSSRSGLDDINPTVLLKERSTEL
- EXPERIMENT: Inhibition of COX2 (unknown origin) expressed in HEK293 TRex cells assessed as reduction in PGE2 production using arachidonic acid as substrate preincubated for 60 mins followed by substrate addition for 1 hr in presence of 10% FBS by RapidFire High-Throughput Mass Spectrometry
- Format: cell-based, HEK293-T-REx
pIC50: −log10 of the molar value.
QUANTITY_KIND: pIC50

Request: Given CC(C)(O)COc1ncc(CO)cc1-c1ccc(S(C)(=O)=O)cc1 , state its recorded pIC50.
Response: < 4.30

Request: Given COc1nc(OCC(C)(C)O)c(-c2ccc(S(C)(=O)=O)cc2)cc1CO , state its recorded pIC50.
Response: < 4.30

Request: Given CC(C)Oc1nc(OCC(C)(C)O)c(-c2ccc(S(C)(=O)=O)cc2)cc1CO , state its recorded pIC50.
Response: < 4.30
